Hello, the source for this data is the supplement of paper PMC9170038, in case you need it.

tested on: MS2 coat protein; assay: apparent KD of MS2 coat protein, switch OFF state (with FMN for OFF switches, without FMN for ON switches); designed switch direction (-1 OFF switch, 1 ON switch): -1; higher = weaker reporter binding; details: FMN input: 0 or 200 uM; Eterna round: R93 (includes R88 designs)
A collection of sequences and their measured apparent KD of MS2 coat protein

{"columns": ["Primary Sequence", "Unit String", "apparent KD of MS2 coat protein"],
 "data": [
  ["AAAAAGUGAGGAUAUUCGGAAGGGAAAGCGCAAACCCAACCGAAGAAGGCACAUGAGGAUCACCCAUGUAAAAA [Ecls4-III 65% - Early G segment 1]", "nM", 35.2],
  ["AAAAAACAUGAGGAUCACCCAUGUGAGGAUAUGCGAAACAAAAAAAACAAAAACAAAAGCAGAAGGCACAAAAA [Amethyst 33]", "nM", 25.7],
  ["AAAAAGGGAGGAUAUACAUGAGGAUCACCCAUGUAAAAAAUCGCGGGAGGGAGGGAAGGUAGAAGGCCCAAAAA [Excls3-V]", "nM", 15.5],
  ["AGGAAACAUGAGGAUCACCCAUGUGAGGAUAUCAGAAAGAAAAGAAAAGAAAGAAGAAUGAGAAGGCACAAGAA [Hotepsekhemwy]", "nM", 40.8],
  ["CAAAAGGAAGGAUAUACAUAAUAAAACGGGCGGGCACCUUGACAUGAGGAUCACCCAUGUAGAAGGUCCAAUAA [Ramaanan]", "nM", 18.1],
  ["AGAAAACAUGAGGAUCACCCAUGUAAGGAUAUGCUAAGGGUGGCUUCGGCCACCCAAUGCAGAAGGUACAAAUA [Excalibur]", "nM", 40.7],
  ["AAAACGGUAGGAUAUACAAUUGGGAACUAGACCGAAAAACCACAUGAGGAUCACCCAUGUAGAAGGGCCAAAAA [Ex2 Malc#12]", "nM", 77.6],
  ["UCACACCUAGGAUAUACAUGAGGAUCACCCAUGUGGCACUCCGCAGGCAGUGUUCCCAGUAGAAGGAGGACACG [Ricere]", "nM", 22.4],
  ["AACAGUACAGGAUAUACAUGAGGAUCACCCAUGUGAAAAGAAAGUGGCGUACCACAAAGUAGAAGGGUACUGGA [Mat - Exclusion 3 - JL mod - D24]", "nM", 96.8],
  ["AAAAAGGCAGGAUAUACGAAACAGGGAAACCUGAAAGGGAAACAUGAGGAUCACCCAUGUAGAAGGGCCAAGAA [Clint Eastwood 64% 2]", "nM", 82],
  ["AAAAUACAUGAGGAUCACCCAUGUGAGGAUAUGAGAAAGCAAAUAAAAUAAAGCAAACUCAGAAGGCACAAAAA [EX 1 May 25]", "nM", 50.2],
  ["GGUUGGCGAGGAUAUACAUGAGGAUCACCCAUGUGAGAGAAAAAAGUAAGAAAGAAAAGUAGAAGGCGCUGACG [salish99-ex3-51]", "nM", 87.8],
  ["AAAAAACAUGAGGAUCACCCAUGUCAGGAUAUCUGUAUUCAAUCCUCGGAUUGAAUACAGAGAAGGGAUAUGAA [Ex1: 604]", "nM", 62.2]
]}

----------
A collection of sequences and their measured apparent KD of MS2 coat protein
tested on: MS2 coat protein; test: apparent KD of MS2 coat protein; designed switch direction (-1 OFF switch, 1 ON switch): -1; higher = weaker reporter binding; settings: input ligand: none

{"columns": ["Primary Sequence", "Target Entity", "apparent KD of MS2 coat protein"],
 "data": [
  ["CAUUUCAGUCGGAGAUCCAACAUGAGGAUCACCCAUGUCUCUAAAGCUUUUUGCUCGUCUUAUCCUCCUUUGUUCAC [JR_STOV1_Sub098] (Eterna round: R97, puzzle: Sensor, turn-off variant 1)", "MS2 coat protein", "299 nM"],
  ["UCUCGCAGGCAAGGAUAUCCUACAUUGUUCUGGCCCGGGCAUGUUACAUGAGGAUCACCCAUGUGGGAGAAGGUGCGCCAGGGC [Design 34] (Eterna round: R96, puzzle: Exclusion NG 2)", "MS2 coat protein", "30.6 nM"],
  ["ACAUGUUAUCCAUGAUAUCACAUGAGGAUCACCCAUGUUAUGGCGAUUUUGAGGUGUAAGCUUUGUGCUCGACUUAU [JR_STOV1_Sub056] (Eterna round: R97, puzzle: Sensor, turn-off variant 1)", "MS2 coat protein", "50 nM"],
  ["GAAAACGAAGAGGAUAUUUGAUAUCAAAGCUUCAAAGAAGGCUUCACAUGAGGAUCACCCAUGUGAUCUUCAAU [Mat - Exclusion 6 - JL Mod - D15] (Eterna round: R97, puzzle: Exclusion 6)", "MS2 coat protein", "24.5 nM"],
  ["CGAUGCUCGAGUCGACAUGAGGAUCACCCAUGUACAGUUAGUGAGGAUAUCGGAGACACAUAGUAUGAGAAGGCGCGAACGUGA [Ex NG3 #16] (Eterna round: R96, puzzle: Exclusion NG 3)", "MS2 coat protein", "40.3 nM"],
  ["GGGCUGCGACACAGCCCAACAAAACAUGAGGAUCACCCAUGUCAGGAUAUACCGAUGCAGCAUCUGUAGAAGGGACAGAUCCAA [Usorxe] (Eterna round: R96, puzzle: Exclusion NG 3)", "MS2 coat protein", "66.3 nM"],
  ["GUACUGAGGCUUUGCUUUAAUCGUACAUGAGGAUCACCCAUGUAGGAUAUGGUAGGCUUUGCUUACCAGAAGGACAGAGUGAUC [JL EXNG3 1.23] (Eterna round: R96, puzzle: Exclusion NG 3)", "MS2 coat protein", "162 nM"],
  ["UGUUGUCGCGCAGGAUAUGAGGAUCACCCAUAUACAGGAUAUGAAAAGAAGGGUCUGAGGAUUACCCAGAAGGGCGGGACAACU [pwkr exNG2 2xF5 2xFMN.26] (Eterna round: R96, puzzle: Exclusion NG 2)", "MS2 coat protein", "88 nM"],
  ["UGCCUAUGAGGAUAUACGUAGAAAUAGAUUCAUGUAAAACUACAUGAGGAUCACCCAUGUAGAAGGCAUGGGCU [Mat - Exclusion 2 - JL Mod - D49] (Eterna round: R97, puzzle: Exclusion 2)", "MS2 coat protein", "16 nM"]
]}
